system: SUDIPGVI (diffuse intrinsic pontine glioma line); test: growth inhibition (% activity, log2 RLU normalised to DMSO / staurosporine); higher = more growth inhibition; conditions: 33 µM
growth inhibition values for the compounds below.
// unit must come after the numeric part

>  <compound>
CN1CCC(=C2c3ccccc3CCc3sccc32)CC1

>  <growth inhibition>
-0.736%

$$$$
>  <compound>
O=c1[nH]c(=O)n([C@H]2C[C@H](O)[C@@H](CO)O2)cc1F

>  <growth inhibition>
4.66%

$$$$
>  <compound>
COc1ccc(-c2nc3ccc(C4=NNC(=O)CC4C)cc3[nH]2)cc1 (configuration not stated)

>  <growth inhibition>
-4.45%

$$$$
>  <compound>
C[C@H]1[C@H](NC(=O)/C(=N\OC(C)(C)C(=O)O)c2csc(N)n2)C(=O)N1S(=O)(=O)O

>  <growth inhibition>
3.09%

$$$$
>  <compound>
CC(NCCc1ccc(O)cc1)C(O)c1ccc(O)cc1 (configuration not stated)

>  <growth inhibition>
1.63%

$$$$

Returns the measured growth inhibition for the input compound. Input: OC(CNCC(O)C1CCc2cc(F)ccc2O1)C1CCc2cc(F)ccc2O1 (configuration not stated)
-0.86%

Okay, and "Cc1nc(-c2ccc(OCC(C)C)c(C#N)c2)sc1C(=O)O" ?
-0.306%

====

system: HNSC; test: growth inhibition (% activity, log2 RLU normalised to DMSO / staurosporine); higher = more growth inhibition; conditions: 33 µM
growth inhibition values for the molecules below.
Provide only the numeric value, understood in %.

Here's what some known entries look like.
>  <molecule>
OC(Cn1cncn1)(Cn1cncn1)c1ccc(F)cc1F

>  <unit string>
%

>  <growth inhibition>
1.54

$$$$
>  <molecule>
CCC(NC(C)C)C(O)c1ccc(O)c(O)c1 (stereo unspecified)

>  <unit string>
%

>  <growth inhibition>
3.15

$$$$
>  <molecule>
C[C@@H](O)[C@H]1C(=O)N2C(C(=O)O)=C(S[C@@H]3CN[C@H](C(=O)N(C)C)C3)[C@H](C)[C@H]12

>  <unit string>
%

>  <growth inhibition>
4.4

$$$$
>  <molecule>
COc1cc(/C=C/C(=O)N2CCN(CC(=O)N3CCCC3)CC2)cc(OC)c1OC

>  <unit string>
%

>  <growth inhibition>
17.5

$$$$
>  <molecule>
Nc1ccc(/N=N/c2ccccc2)c(N)n1

>  <unit string>
%

>  <growth inhibition>
9.5

$$$$

Let's switch to this molecule now.
Returns the measured growth inhibition for the input molecule. Input: "NCCC(O)(P(=O)(O)O)P(=O)(O)O"
2.52

====

tested on: DIPGX7 (H3.3 K27M diffuse intrinsic pontine glioma line); assay: growth inhibition (% activity, log2 RLU normalised to DMSO / staurosporine); higher = more growth inhibition; details: 33 µM
growth inhibition values for the compounds below.
Provide only the numeric value, understood in %.

>  <compound>
CN(C)CCc1c[nH]c2ccc(Cn3cncn3)cc12

>  <quantitative readout>
-0.925

$$$$
>  <compound>
COc1nc(C)nc(Cl)c1NC1=NCCN1

>  <quantitative readout>
-1.95

$$$$
>  <compound>
Oc1c(Br)cc(Br)c2cccnc12

>  <quantitative readout>
1.4

$$$$
>  <compound>
CN(N=O)C(=O)N[C@H]1C(O)O[C@H](CO)[C@@H](O)[C@@H]1O (mixture of isomers)

>  <quantitative readout>
2.05

$$$$
>  <compound>
Nc1nc(CC(=O)Nc2ccc(CCNC[C@H](O)c3ccccc3)cc2)cs1

>  <quantitative readout>
-0.176

$$$$
>  <compound>
Nc1nc(=O)n([C@@H]2CS[C@H](CO)O2)cc1F

>  <quantitative readout>
1.33

$$$$

For DIPGX7, provide growth inhibition of "NCCS(=O)(=O)O" please.
0.217

Okay, and "O=C(O[C@H]1CN2CCC1CC2)N1CCc2ccccc2[C@@H]1c1ccccc1" ?
-0.506

====

growth inhibition values for the compounds below.
tested on: SUDIPGXIII (diffuse intrinsic pontine glioma line); assay: growth inhibition (% activity, log2 RLU normalised to DMSO / staurosporine); higher = more growth inhibition; details: 33 µM
Provide only the numeric value, understood in %.

Here's what some known entries look like.
>  <compound>
CN1CCOC(c2ccccc2)c2ccccc2C1 (configuration not stated)

>  <growth inhibition, %>
2.52

$$$$
>  <compound>
COc1ccccc1N1CCN(CCCNc2cc(=O)n(C)c(=O)n2C)CC1

>  <growth inhibition, %>
1.17

$$$$
>  <compound>
CC(=O)O[C@]1(C(C)=O)CC[C@H]2[C@@H]3C[C@H](C)C4=CC(=O)CC[C@]4(C)[C@H]3CC[C@@]21C

>  <growth inhibition, %>
4.79

$$$$
>  <compound>
CC(=O)OCC(=O)[C@@]12OC(C)(C)O[C@@H]1C[C@H]1[C@@H]3C[C@H](F)C4=CC(=O)C=C[C@]4(C)[C@@]3(F)[C@@H](O)C[C@@]12C

>  <growth inhibition, %>
2.76

$$$$
>  <compound>
OCC(O)CN1CCN(c2ccccc2)CC1 (configuration not stated)

>  <growth inhibition, %>
-0.744

$$$$
>  <compound>
Cc1ccc(C(=O)c2ccc(CC(=O)O)n2C)cc1

>  <growth inhibition, %>
-0.302

$$$$
>  <compound>
CN(C)c1nc(N(C)C)nc(N(C)C)n1

>  <growth inhibition, %>
-0.234

$$$$
>  <compound>
Nc1ccn(C[C@@H](CO)OCP(=O)(O)O)c(=O)n1

>  <growth inhibition, %>
1.19

$$$$
>  <compound>
O=C1CN2Cc3c(ccc(Cl)c3Cl)N=C2N1

>  <growth inhibition, %>
-4.79

$$$$
>  <compound>
Clc1ccc(C(c2ccccc2Cl)C(Cl)Cl)cc1 (configuration not stated)

>  <growth inhibition, %>
1.43

$$$$

Returns the measured growth inhibition for the input compound. Input: "CC/C(=C(/CC)c1ccc(O)cc1)c1ccc(O)cc1"
-10.6

Okay, and CCn1cc(C(=O)O)c(=O)c2cc(F)c(N3CCNC(C)C3)c(F)c21 (configuration not stated) ?
1.13

Okay, and "Clc1cccc(Cl)c1NC1=NCCN1" ?
-1.09

Okay, and "CNS(=O)(=O)CCc1ccc2[nH]cc(C3CCN(C)CC3)c2c1" ?
-1.47

====

test system: SUDIPGIV (diffuse intrinsic pontine glioma line); assay: growth inhibition (% activity, log2 RLU normalised to DMSO / staurosporine); higher = more growth inhibition; conditions: 33 µM
readout label: growth inhibition (%)
Provide only the numeric value, understood in %.

Here's what some known entries look like.
>  <compound>
O=C(Oc1ccccc1C(=O)O)c1ccccc1O

>  <unit string>
%

>  <growth inhibition>
-3.17

$$$$
>  <compound>
CN(c1nccc(=O)[nH]1)C1CCN(c2nc3ccccc3n2Cc2ccc(F)cc2)CC1

>  <unit string>
%

>  <growth inhibition>
0.631

$$$$
>  <compound>
CC(=O)CCCCn1c(=O)c2c(ncn2C)n(C)c1=O

>  <unit string>
%

>  <growth inhibition>
-0.648

$$$$
>  <compound>
CN[C@@H]1[C@H](O[C@H]2[C@H](O[C@H]3[C@H](O)[C@@H](O)[C@H](N=C(N)N)[C@@H](O)[C@@H]3N=C(N)N)O[C@@H](C)[C@]2(O)C=O)O[C@@H](CO)[C@H](O)[C@H]1O

>  <unit string>
%

>  <growth inhibition>
-0.137

$$$$
>  <compound>
CC(C[N+](C)(C)C)OC(N)=O (stereo not given)

>  <unit string>
%

>  <growth inhibition>
-1.69

$$$$

Returns the measured growth inhibition for the input compound. Input: "COc1ccc(O)cc1"
-3.15

Okay, and "O=C(N/N=C/c1ccc([N+](=O)[O-])o1)c1ccc(O)cc1" ?
18.5

Okay, and "CCC(=O)O[C@]1(C(=O)CCl)[C@@H](C)C[C@H]2[C@@H]3C[C@H](F)C4=CC(=O)C=C[C@]4(C)[C@@]3(F)[C@@H](O)C[C@@]21C" ?
1.52

Okay, and "CC(C)(C)c1nc(-c2cccc(NS(=O)(=O)c3c(F)cccc3F)c2F)c(-c2ccnc(N)n2)s1" ?
-0.469

Okay, and "CN(C/C=C/c1ccccc1)Cc1cccc2ccccc12" ?
0.156

Okay, and "CN(C)CCCN1c2ccccc2CCc2ccccc21" ?
2.4

====

test system: DIPGX29 (H3.3 K27M diffuse intrinsic pontine glioma line); assay: growth inhibition (% activity, log2 RLU normalised to DMSO / staurosporine); higher = more growth inhibition; settings: 33 µM
growth inhibition values for the compounds below.
Provide only the numeric value, understood in %.

>  <compound>
CNCCCC12CCC(c3ccccc31)c1ccccc12

>  <readout label>
growth inhibition

>  <unit string>
%

>  <quantitative readout>
-1.06

$$$$
>  <compound>
C#CC1(O)CCC2C3CCc4cc(OC)ccc4C3CCC21C (stereo not given)

>  <readout label>
growth inhibition

>  <unit string>
%

>  <quantitative readout>
0.518

$$$$
>  <compound>
CC(C)NCC(O)COc1cccc2ccccc12 (stereo not given)

>  <readout label>
growth inhibition

>  <unit string>
%

>  <quantitative readout>
-0.19

$$$$

Returns the measured growth inhibition for the input compound. Input: "O=C(O)CCc1nc(-c2ccccc2)c(-c2ccccc2)o1"
-0.808

Okay, and "CC(C)(C)NC(=O)[C@H]1CC[C@H]2[C@@H]3CC[C@H]4NC(=O)C=C[C@]4(C)[C@H]3CC[C@]12C" ?
1.8

Okay, and "Cc1cc(NC(=O)C2=C(O)c3ccccc3S(=O)(=O)N2C)no1" ?
-3.22

Okay, and "CN1CCC[C@H]1c1cccnc1" ?
0.174
